Listing: log10 of IC50 of selected molecules
EXPERIMENTAL TARGET: Protein kinase C (PKC)
ASSAY SUMMARY: Inhibitory activity against protein kinase C (PKC)
Format: protein assay, Homo sapiens
PROPERTY MEASURED: log10 of IC50 (log10 of the value in µM)

# MOLECULE, EXPERIMENTAL TARGET, log10 of IC50
rows = [
    ("O=C1O[C@H]2[C@H](O)[C@@H](OC(=O)c3cc(O)c(O)c4c3C3C1=CC(=O)C(O)(O)C3(O)O4)[C@@H](OC(=O)c1cc(O)c(O)c(O)c1)O[C@@H]2CO (stereo partly drawn)", "Protein kinase C (PKC)", 1.93),
    ("O=C(O[C@@H]1O[C@@H]2COC(=O)c3cc(O)c(O)c(O)c3-c3c(cc(O)c(O)c3O)C(=O)O[C@H]([C@H]1OC(=O)c1cc(O)c(O)c(O)c1)[C@@H]2OC(=O)c1cc(O)c(O)c(O)c1)c1cc(O)c(O)c(O)c1", "Protein kinase C (PKC)", 0.60),
    ("O=C1O[C@H]2[C@H](OC(=O)c3cc(O)c(O)c(O)c3)[C@@H](OC(=O)c3cc(O)c(O)c4c3C3C1=CC(=O)C(O)(O)C3(O)O4)[C@@H](OC(=O)c1cc(O)c(O)c(O)c1)O[C@@H]2COC(=O)c1cc(O)c(O)c(O)c1 (stereo partly drawn)", "Protein kinase C (PKC)", 1.20),
    ("CC1(C)CC[C@]2(C(=O)O[C@@H]3O[C@H](CO)[C@@H](O)[C@H](O)[C@H]3O)CC[C@]3(C)C(=CC[C@@H]4[C@@]5(C)C[C@@H](O)[C@@H]6OC(=O)c7cc(O)c(O)c(O)c7-c7c(cc(O)c(O)c7O)C(=O)OC[C@@]6(CO)C5CC[C@]43C)C2C1 (stereo partly drawn)", "Protein kinase C (PKC)", 1.26),
    ("O=C1OCC2OC(=O)c3cc(O)c(O)c(O)c3-c3c(O)c(O)c(O)c4c3C(=O)OC(C2OC(=O)c2cc(O)c(O)c(O)c2-c2c1cc(O)c(O)c2O)C1OC(=O)c2c-4c(O)c(O)c(O)c2[C@@H]1O (stereo partly drawn)", "Protein kinase C (PKC)", 0.60),
    ("O=C(OC[C@H]1O[C@@H](OC(=O)c2cc(O)c(O)c(O)c2)[C@H](OC(=O)c2cc(O)c(O)c(O)c2)[C@@H](OC(=O)c2cc(O)c(O)c(O)c2)[C@@H]1OC(=O)c1cc(O)c(O)c(O)c1)c1cc(O)c(O)c(O)c1", "Protein kinase C (PKC)", 0.60),
    ("O=C(O[C@@H]1O[C@@H]2COC(=O)c3cc(O)c(O)c(O)c3-c3c(cc(O)c(O)c3O)C(=O)O[C@H]([C@H]1O)[C@@H]2O)c1cc(O)c(O)c(O)c1", "Protein kinase C (PKC)", 1.30),
]

Taken from ChEMBL document CHEMBL1149998.
